System: TGF-b induced Endothelin-1 production
Assay: ET-1 assay: inhibitory effect on TGF-b induced endothelin-1 production
Type: cell-based
Settings: Homo sapiens, Fibroblast; fibroblasts, stimulant (TGFb, serum, LPA etc), ET-1 in media by ELISA, 4-parameter fit
List of EC50 values.

For orientation, consider the following solved cases.
| structure-notation | EC50 |
| --- | --- |
| CCn1c(=O)oc2ccc(-c3cn(-c4ccc(OC(F)(F)F)cc4)c(=O)cc3C)cc21 | > 200 µM |
| Cc1ccc(=O)n(-c2ccccc2F)c1 | > 200 µM |

IN: Retrieve EC50 measured for O=c1ccc(-c2cccc(Cl)c2)cn1-c1ccccc1F and print it.
OUT: 50 to 200 µM

IN: Retrieve EC50 measured for CCOc1ccc(-n2cc(-c3cnn(C)c3)c3nn(CC)nc3c2=O)c(C)c1 and print it.
OUT: 50 to 200 µM

* * *

Test system: TGF-b induced Endothelin-1 production
Assay: ET-1 assay: inhibitory effect on TGF-b induced endothelin-1 production
Format: cell-based
Conditions: Homo sapiens, Fibroblast; fibroblasts, stimulant (TGFb, serum, LPA etc), ET-1 in media by ELISA, 4-parameter fit
pEC50: −log10 of the molar value.
List of pEC50 values.

| structure-notation | pEC50 |
| --- | --- |
| Cn1cc(-c2cn(-c3ccc(OC(F)(F)F)cc3)c(=O)cc2OCc2ccccc2)cn1 | < 3.70 |
| Cc1cc(=O)n(-c2ccc(OC(F)(F)F)cc2)cc1-c1ccc2oc(=O)[nH]c2c1 | > 4.30 |
| COc1cccc(-n2cc(C(F)(F)F)ccc2=O)c1 | < 3.70 |
| COCCOc1ccc(Oc2cc(=O)n(-c3ccc(OC(F)(F)F)cc3)cc2-c2cnn(C)c2)cc1 | 3.70 to 4.30 |
| O=C(c1ccccc1)n1cc(-c2ccc(=O)n(-c3ccccc3)c2)cn1 | < 3.70 |

IN: Check TGF-b induced Endothelin-1 production data and give pEC50 for CCOc1ccc(-n2cc(-c3ccc4scnc4c3)c(C)cc2=O)c(C)c1 .
OUT: < 3.70

IN: Check TGF-b induced Endothelin-1 production data and give pEC50 for O=C1COc2c(-c3ccc(F)cc3)cn(-c3ccc(OC(F)(F)F)cc3)c(=O)c2N1Cc1ccccc1 .
OUT: < 3.70

IN: Check TGF-b induced Endothelin-1 production data and give pEC50 for Cn1cc(-c2cn(-c3ccc(OC(F)(F)F)cc3)c(=O)cc2Oc2ccccc2F)cn1 .
OUT: < 3.70

* * *

List of EC50 values.
Test system: TGF-b induced Endothelin-1 production
Test: ET-1 assay: inhibitory effect on TGF-b induced endothelin-1 production
Type: cell-based
Conditions: Homo sapiens, Fibroblast; fibroblasts, stimulant (TGFb, serum, LPA etc), ET-1 in media by ELISA, 4-parameter fit

For orientation, consider the following solved cases.
| structure-notation | EC50 |
| --- | --- |
| CN1CCN(CCOc2cc(=O)n(-c3ccc(OC(F)(F)F)cc3)cc2-c2cnn(C)c2)CC1 | 50 to 200 µM |
| O=c1ccc(-c2cncnc2)cn1-c1cccc(F)c1 | > 200 µM |
| CCOc1ccc(-n2cc(-c3cnn(C)c3)c(NCc3ccncc3)cc2=O)c(C)c1 | 50 to 200 µM |

IN: Retrieve EC50 measured for CC(=O)Nc1cc(=O)n(-c2ccc(OC(F)(F)F)cc2)cc1-c1cnn(C)c1 and print it.
OUT: > 200 µM

IN: Retrieve EC50 measured for O=c1ccc(-c2ccccc2)cn1-c1ccccc1Cl and print it.
OUT: 50 to 200 µM

* * *

Tested on: TGF-b induced Endothelin-1 production
Test: ET-1 assay: inhibitory effect on TGF-b induced endothelin-1 production
Type: cell-based
Conditions: Homo sapiens, Fibroblast; fibroblasts, stimulant (TGFb, serum, LPA etc), ET-1 in media by ELISA, 4-parameter fit
reported-metric: EC50

For orientation, consider the following solved cases.
| compound | tested-target | experimental-result |
| --- | --- | --- |
| Cc1cc(=O)n(-c2ccc(NC(N)=O)cc2)cc1-c1ccc(F)cc1 [Compound 418] | TGF-b induced Endothelin-1 production | 50 to 200 µM |
| CCOc1ccc(-n2cc(-c3cnn(C)c3)c(NCc3ccccn3)cc2=O)c(C)c1 [Compound 699] | TGF-b induced Endothelin-1 production | 50 to 200 µM |
| CC(C)NC(=O)n1cc(-c2ccc(=O)n(-c3ccccc3)c2)cn1 [Compound 75] | TGF-b induced Endothelin-1 production | 50 to 200 µM |
| CCCC(=O)Nc1cc(=O)n(-c2ccc(OC(F)(F)F)cc2)cc1-c1ccc(F)cc1 [Compound 110] | TGF-b induced Endothelin-1 production | > 200 µM |
| Cc1cc(=O)n(-c2ccc(F)cc2)cc1-c1ccc(OC(F)(F)F)cc1 [Compound 212] | TGF-b induced Endothelin-1 production | 50 to 200 µM |

# evaluate next
IN: Retrieve EC50 measured for Cc1cc(=O)n(-c2ccccc2F)cc1-c1cnn(C)c1 [Compound 230] and print it.
OUT: > 200 µM

* * *

Tested on: TGF-b induced Endothelin-1 production
Assay: ET-1 assay: inhibitory effect on TGF-b induced endothelin-1 production
Type: cell-based
Conditions: Homo sapiens, Fibroblast; fibroblasts, stimulant (TGFb, serum, LPA etc), ET-1 in media by ELISA, 4-parameter fit
List of EC50 values.

For orientation, consider the following solved cases.
| compound | experimental-result |
| --- | --- |
| Cc1cc(=O)n(-c2ccc(OC(F)(F)F)cc2)cc1-c1cn(C)nc1C(F)(F)F [Compound 238] | 50 to 200 µM |
| Cc1cc(=O)n(-c2ccc(F)c(NC(N)=O)c2)cc1-c1ccc(F)cc1 [Compound 559] | < 50 µM |

# evaluate next
IN: Retrieve EC50 measured for Cn1cc(-c2cn(-c3ccc(Cl)cc3)c(=O)c3[nH]ccc23)cn1 [Compound 605] and print it.
OUT: < 50 µM

* * *

Test system: TGF-b induced Endothelin-1 production
Assay: ET-1 assay: inhibitory effect on TGF-b induced endothelin-1 production
Format: cell-based
Conditions: Homo sapiens, Fibroblast; fibroblasts, stimulant (TGFb, serum, LPA etc), ET-1 in media by ELISA, 4-parameter fit
Method: Assay of Inhibitory Effect on TGF-b Induced Endothelin-1 Production Fibroblasts (primary human lung and dermal, HFL-1, 3T3 etc) are seeded in 96-well plates at ˜15000 cells/well and serum starved for 0-48 hours. After media exchange, compounds serially diluted in DMSO are added to the cells. […] ET-1 is quantified using an ELISA kit (R&D Systems). The amount of ET-1 produced in the assay wells are back-calculated using the ELISA standard. […]
reported-metric: EC50

For orientation, consider the following solved cases.
| structure-notation | tested-target | experimental-result |
| --- | --- | --- |
| CCOc1ccc(-n2cc(-c3ccc4ocnc4c3)c(C)cc2=O)c(C)c1 | TGF-b induced Endothelin-1 production | 50 to 200 µM |
| Cc1cc(=O)n(-c2ccc(OC(F)(F)F)cc2)cc1-c1cccc2c1N(C)C(=O)CO2 | TGF-b induced Endothelin-1 production | > 200 µM |
| CCn1ccc2ccn(-c3ccc(OC(F)(F)F)cc3)c(=O)c21 | TGF-b induced Endothelin-1 production | < 50 µM |
| Cc1cc(=O)n(-c2ccc(OC(F)(F)F)cc2)cc1-c1ccc2cn(C)nc2c1 | TGF-b induced Endothelin-1 production | 50 to 200 µM |
| COCCOc1ccc(-n2cc(-c3cnn(C)c3)c(Oc3ccccc3)cc2=O)cc1 | TGF-b induced Endothelin-1 production | < 50 µM |

IN: Retrieve EC50 measured for Cn1cc(-c2cn(-c3ccc(OC(F)(F)F)cc3)c(=O)c3c2CCN3C(=O)OC(C)(C)C)cn1 and print it.
OUT: < 50 µM

IN: Retrieve EC50 measured for COCCOCCOCCOc1ccc(-n2cc(C(C)=O)ccc2=O)cc1 and print it.
OUT: > 200 µM

IN: Retrieve EC50 measured for CCOc1ccc(-n2cc(-c3cn[nH]c3)c3cc[nH]c3c2=O)c(C)c1 and print it.
OUT: < 50 µM

* * *

List of EC50 values.
System: TGF-b induced Endothelin-1 production
Assay: ET-1 assay: inhibitory effect on TGF-b induced endothelin-1 production
Type: cell-based
Settings: Homo sapiens, Fibroblast; fibroblasts, stimulant (TGFb, serum, LPA etc), ET-1 in media by ELISA, 4-parameter fit

| structure-notation | EC50 |
| --- | --- |
| Cc1cc(=O)n(-c2cccc(NC(N)=O)c2)cc1-c1cnn(C)c1 | < 50 µM |
| CC(C)OC(=O)Nc1cc(=O)n(-c2ccc(OC(F)(F)F)cc2)cc1-c1ccc(F)cc1 | > 200 µM |
| COc1cccc(-n2cc(-c3ccc(S(N)(=O)=O)cc3)ccc2=O)c1 | > 200 µM |
| O=c1c2[nH]ncc2c(-c2ccc(F)cc2)cn1-c1ccc(OC(F)(F)F)cc1 | < 50 µM |
| Cc1cc(=O)n(-c2ccc3c(c2)OCO3)cc1-c1cnn(C)c1 | > 200 µM |

IN: Retrieve EC50 measured for CCOc1ccc(-n2cc(-c3cn[nH]c3)c3c(c2=O)CCCC3)c(C)c1 and print it.
OUT: < 50 µM

IN: Retrieve EC50 measured for CC(=O)Nc1cccc(-n2cc(C(F)(F)F)ccc2=O)c1 and print it.
OUT: > 200 µM

IN: Retrieve EC50 measured for Cc1cc(=O)n(-c2cccc(OC(F)(F)F)c2)cc1-c1ccc(F)cc1 and print it.
OUT: < 50 µM

IN: Retrieve EC50 measured for CCOc1ccc(-n2cc(-c3ccccc3)c(C)cc2=O)c(C)c1 and print it.
OUT: 50 to 200 µM

IN: Retrieve EC50 measured for O=c1ccc(C(F)(F)F)cn1-c1ccccc1Cl and print it.
OUT: > 200 µM
